I'd appreciate it if you could supply pKd values for the items below.
- assayed_system: T1, LmoNrdR (Listeria monocytogenes serotype 1/2a …, UniProt Q8Y6W9 1-154)
- T1 sequence: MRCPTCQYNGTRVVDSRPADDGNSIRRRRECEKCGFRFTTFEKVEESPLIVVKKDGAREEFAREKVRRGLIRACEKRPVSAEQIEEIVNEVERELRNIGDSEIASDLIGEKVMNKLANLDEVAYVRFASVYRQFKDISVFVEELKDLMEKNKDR
- experimental_protocol: MST; dATP + ATP; MST, temperature not stated. Lmo: 25 mM Bis-Tris propane pH 6.5, 100 mM KCl, 5 mM MgCl2, 5% glycerol, 1 mM DTT, 0.05% Tween 20, one nucleotide 1 mM or two at 0.5 mM each; Spn: 25 mM HEPES pH 7.2, 250 mM NaCl, 2.5 mM MgCl2, 15% glycerol, 2 mM DTT, 0.1 mg/mL BSA, 0.05% Tween 20, 0.5 mM ATP and/or dATP; Eco: 25 mM Tris pH 8.5, 100 mM NaCl, 7 mM MgCl2, 1 mM DTT, 0.025% Tween 20, 1 mM ATP + 1 mM dATP; …
- conditions_used: protein: recombinant; tags: C-terminal His6; chain copies: 4; label: 5'-Cy5 sense; blunt
API: returns pKd as number; meaning -log10 of concentration in mol/L.

The recorded pKd for Synt 25 bp spacer (dsDNA) DNA 1: GCCAAACACAACATCTAGTGGTTGGATAGCGTGAAGTTCACCTAGCACACAACATCTAGTGGACCTC DNA 2: GAGGTCCACTAGATGTTGTGTGCTAGGTGAACTTCACGCTATCCAACCACTAGATGTTGTGTTTGGC is 7.60

The measured pKd associated with Synt 17 bp spacer (dsDNA) DNA 1: GCCAAACACAACATCTAGTGGTTGGATAGCGTGAAGGCACACAACATCTAGTGGACCTC DNA 2: GAGGTCCACTAGATGTTGTGTGCCTTCACGCTATCCAACCACTAGATGTTGTGTTTGGC reads 9.00
